target: human αVβ6 integrin on cells (human, UniProt P06756 31-1048; P18564 22-788); test: cell-based or functional assay
Sequence (P06756 31-1048, chain 1 of 2): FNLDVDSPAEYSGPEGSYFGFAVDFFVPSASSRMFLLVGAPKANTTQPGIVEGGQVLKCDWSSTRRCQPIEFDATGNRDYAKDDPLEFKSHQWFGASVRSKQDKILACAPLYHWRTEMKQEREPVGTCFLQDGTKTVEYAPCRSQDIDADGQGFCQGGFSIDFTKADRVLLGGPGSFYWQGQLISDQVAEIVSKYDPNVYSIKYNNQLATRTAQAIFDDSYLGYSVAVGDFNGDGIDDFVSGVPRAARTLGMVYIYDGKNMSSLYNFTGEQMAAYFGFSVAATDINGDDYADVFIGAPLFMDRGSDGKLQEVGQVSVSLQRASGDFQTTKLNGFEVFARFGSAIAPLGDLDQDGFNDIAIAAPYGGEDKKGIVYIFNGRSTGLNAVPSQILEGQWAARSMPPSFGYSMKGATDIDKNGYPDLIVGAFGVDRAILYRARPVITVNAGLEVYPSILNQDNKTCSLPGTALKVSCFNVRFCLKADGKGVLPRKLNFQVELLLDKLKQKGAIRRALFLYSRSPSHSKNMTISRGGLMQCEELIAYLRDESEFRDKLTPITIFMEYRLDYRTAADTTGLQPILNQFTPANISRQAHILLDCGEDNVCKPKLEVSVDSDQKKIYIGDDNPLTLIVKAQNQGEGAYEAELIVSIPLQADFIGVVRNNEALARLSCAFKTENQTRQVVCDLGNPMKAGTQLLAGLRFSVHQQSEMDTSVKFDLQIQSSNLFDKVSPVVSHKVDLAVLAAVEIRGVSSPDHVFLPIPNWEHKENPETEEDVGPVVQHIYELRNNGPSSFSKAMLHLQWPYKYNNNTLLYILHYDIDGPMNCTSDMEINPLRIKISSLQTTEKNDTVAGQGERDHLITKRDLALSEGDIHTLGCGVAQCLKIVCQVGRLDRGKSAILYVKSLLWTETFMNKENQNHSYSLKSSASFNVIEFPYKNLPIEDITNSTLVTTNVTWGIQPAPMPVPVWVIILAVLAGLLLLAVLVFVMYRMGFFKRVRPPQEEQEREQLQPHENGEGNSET
Sequence (P18564 22-788, chain 2 of 2): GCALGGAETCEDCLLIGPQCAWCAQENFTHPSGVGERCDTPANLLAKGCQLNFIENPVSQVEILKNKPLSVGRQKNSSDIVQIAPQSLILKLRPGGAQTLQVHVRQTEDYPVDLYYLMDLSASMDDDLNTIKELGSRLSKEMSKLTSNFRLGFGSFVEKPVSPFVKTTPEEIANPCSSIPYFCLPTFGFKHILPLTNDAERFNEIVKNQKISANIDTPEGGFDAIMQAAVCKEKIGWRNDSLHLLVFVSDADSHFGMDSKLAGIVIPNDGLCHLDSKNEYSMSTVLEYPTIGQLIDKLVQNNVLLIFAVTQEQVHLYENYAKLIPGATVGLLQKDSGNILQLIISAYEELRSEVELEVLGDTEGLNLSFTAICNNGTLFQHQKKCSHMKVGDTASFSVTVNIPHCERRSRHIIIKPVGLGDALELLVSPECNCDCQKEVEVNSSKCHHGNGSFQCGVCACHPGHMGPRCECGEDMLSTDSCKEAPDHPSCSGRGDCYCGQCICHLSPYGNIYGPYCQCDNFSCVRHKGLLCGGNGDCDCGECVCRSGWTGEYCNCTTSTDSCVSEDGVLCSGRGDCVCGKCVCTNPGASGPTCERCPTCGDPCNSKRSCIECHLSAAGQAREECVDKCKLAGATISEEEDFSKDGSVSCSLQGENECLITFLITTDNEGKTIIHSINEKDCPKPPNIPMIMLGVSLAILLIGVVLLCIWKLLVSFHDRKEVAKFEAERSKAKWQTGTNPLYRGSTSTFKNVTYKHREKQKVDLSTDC
parameter: Estimated IC50, n = 1 (HT29 adhesion to TGFβLAP) (µg/mL)
Answer format: numeric, µg/mL implied, no suffix.

Looking up sc 161 (antibody, V domains shown) VH: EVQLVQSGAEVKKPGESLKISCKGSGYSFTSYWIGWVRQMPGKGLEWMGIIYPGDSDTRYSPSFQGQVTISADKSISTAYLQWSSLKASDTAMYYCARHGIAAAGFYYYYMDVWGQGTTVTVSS VL: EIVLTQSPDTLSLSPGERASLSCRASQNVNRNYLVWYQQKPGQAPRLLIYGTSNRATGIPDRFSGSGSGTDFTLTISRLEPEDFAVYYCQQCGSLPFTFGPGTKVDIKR , I found its Estimated IC50, n = 1 (HT29 adhesion to TGFβLAP) recorded as 2.41
